ASSAY_REMARKS: Observed clearance in CD1 mouse at 100 mg/kg, ip measured after 15 to 4320 mins by LC-MS/MS analysis
Format: ADME, organism-based
CONDITION: in vivo, time 15-4320 min
MEASUREMENT_TYPE: CL/F (mL/min/kg)
Provide the reading as a plain figure in mL/min/kg.

query: I am curious: what CL/F value has been reported for "CCc1cc2c(cc1Cl)nc1c(=O)[nH]c(=O)nc-1n2CCOCC(C)C" ?
result: 6.2
